B1: 2M8U (parent)
chain: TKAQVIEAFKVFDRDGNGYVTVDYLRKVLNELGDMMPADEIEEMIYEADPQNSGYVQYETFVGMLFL

- Variants of: B1
- procedure.details: folding stability dG (cDNA display proteolysis); higher = more stable
- assay.conditions: PBS, room temperature
For each of the variants below, state its folding stability dG.
Entry rule: numbers only, all in kcal/mol.

Value of folding stability dG reported for the variant M64S is 3.08

Query T1C yields folding stability dG of 3.76

According to the records, this variant D49K displays folding stability dG of 2.14

For reference, reported folding stability dG for E7N stands at 3.17

Form: variant = G16T ; folding stability dG = 2.43

Documented folding stability dG of M44H : 3.52

get_value(item= E40W , readout=folding stability dG) returns 3.75

Looking up E31M , I see its folding stability dG listed as 3.74

folding stability dG reported for this variant V28Y : 2.78

Entry under test: M36Q . Its folding stability dG was 3.19

# folding stability dG (variant: N52K ) is 3.4

Noted for I45S : its folding stability dG reads 2.16

Lab note: E59C gave folding stability dG of 3.25

Per the record, K10M has folding stability dG of 3.15

The recorded folding stability dG for A8Y is 3.17

variant P37D , folding stability dG observed: 3.26

For D39C the variant record lists folding stability dG as 3.74

# folding stability dG of Q57I = 2.96

Query Q4K yields folding stability dG of 3.38

Sample L67M ; folding stability dG observed: 3.46

Value of folding stability dG reported for the variant L25F is 2.91

For F9L the variant record lists folding stability dG as 4.1
